Target entity: T1, CD27 expressed on the cell surface (HT1080_CD27 cells) (human, UniProt P26842 20-260); further: test concentration or dose not given here
T1 sequence (looked up): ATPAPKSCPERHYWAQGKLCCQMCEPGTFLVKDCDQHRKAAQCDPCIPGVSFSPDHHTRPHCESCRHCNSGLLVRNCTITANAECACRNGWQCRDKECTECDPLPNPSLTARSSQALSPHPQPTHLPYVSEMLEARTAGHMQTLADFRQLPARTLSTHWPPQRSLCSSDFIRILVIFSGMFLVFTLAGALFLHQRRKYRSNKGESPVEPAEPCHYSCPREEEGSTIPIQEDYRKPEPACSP
Protocol summary: cell-based or functional assay
Assign YES to entries whose IL-8 [abs. corr.] meets or exceeds 0.5 abs. corr.; assign NO to the rest.

Binder	Classification
P018.S.05.A.E04 (antibody, V domains shown, V regions on human Ig constant parts; also called AB27_90) VH: QEQLEESGGDLVKPEGSLTLTCTASGFSFSSYWICWVRQAPGKGLEWIACIATHSGTDFYASWAKGRFTISKTSSTTVTLQMTSLTAADTATYFCARDPYGFNGDYFSLWGPGTLVTVSS VL: ALVMTQTPASVSAAVGGTVTINCQASQSVYNSNYLSWYQQKPGQPPKLLIYKASTLASGVPSRFKGSGSGTQFTLTISGVESDDAATYYCAGYKSYTNDDNGFGGGTEVVVK	YES
P018.S.03.A.D03 (antibody, V domains shown, V regions on human Ig constant parts; also called AB27_48) VH: QEQLVESGGGLVQPEGSLTLTCTASGFSFNNNYVMSWVRQAPGKGLEWIGTIYVVSGSTYYASWVNGRFSISKTSSTTVTLQMTSLTDADTATYFCARDQLYNSGYDFDLWGPGTLVIVSS VL: AQVLTQTASPVSAAVGSTVTISCQSSQSVYNNNELSWYQQKPGQPPKLLIYQASKLASGVSSRFSGSESGTQFTLTISGVQSDDAATYYCQGTYYRSGLDNGFGGGTEVVVK	NO
P018.S.05.A.A04 (antibody, V domains shown, V regions on human Ig constant parts; also called AB27_81) VH: QEQLVESGGDLVKPGASLTLTCTASGIDFSSSYYMSWVRQAPGKGLEWIACIDTVDDYTYYASWAKGRFTISKTSSTTVSLQMTSLTAADTATYFCARERIDNNTDCFDLWGPGTLVTISS VL: AQVLTQTPSPVSAAVGGTVTISCQSSQSVVSKNRLAWYQQKPGQPPKLLIWLASKLASGVPSRFRGSGSGTQFTLTISGVQSDDAATYYCQGYYSGAIYAFGGGTDVVVK	NO
P018.S.07.A.B06 (antibody, V domains shown, V regions on human Ig constant parts; also called AB27_118) VH: QEQLVESGGDLVKPGTSLTLTCKASGLDFSSTPYMCWVRQAPGKGLEWIACIYTGSVIYTYYASWAKDRFTISKISSTSVTLQMTSLTVADTATYFCARSPAGYAAYGYGGFNLWGPGTLVTVSS VL: AIEMTQTPFSVSAAVGGTVTINCQASQNIYNNLAWYQQKPGQPPKLLIYGASTLESGVPSRFEGSGSGTEYTLTISDLESDDAATYYCQSAYYSSSATDMAFGGGTEVVVK	NO
P018.S.01.A.B04 (antibody, V domains shown, V regions on human Ig constant parts; also called AB27_5) VH: QEQLEESGGRLVTPGGTLTLTCTASGFSLSSYDMSWVRQAPGKGLEWIGYIWSDGNTDYASWAAGRFTASRASTTVDLKMTSLTTEDTATYFCARGYTGFFLWGPGTLVTVSS VL: DVVMTQTPSSVSAAVGGTVTIKCQASQSIGSSYLSWYQQKPGQPPKLLIYKTSTLASGVPSRFKGSGSGTEFTLTISDLESDDAATYYCQCTYYGGSWRVAFGGGTEVVVK	YES
P018.S.01.A.B03 (antibody, V domains shown, V regions on human Ig constant parts; also called AB27_4) VH: QSLEESGGRLVTPGTPLTLTCTVSGFSLSSNAMSWVRQAPGEGLEWIGTIYTHGSSYYATWAKGRFTISKTSSTTVDLKMTSLTTEDTATYFCAGWAGGLSLWGPGTLVTVSS VL: DVVMTQTPASVSEPVGGTVTIKCQASEDIDNALAWYQQKPGQAPKILIYSASTLPSGVPSRFKGSGSGTQFTLTISDLESADAATYYCQSAYGGTYGDGFGGGTEVVVK	NO
P018.S.10.A.G03 (antibody, V domains shown, V regions on human Ig constant parts; also called AB27_182) VH: QSVEESGGRLVTPGTPLTLTCTVSGFTISSYHMCWVRQAPGKGLQYIGIIGSNGNTYYASWAKSRSTITRNTNENTVTLKMTSLTTEDTATYFCARSSGWGARFNLWGQGTLVTVSS VL: AQVLTQTPSSVSAAVGGTVTINCQASQSVYNDNELSWYQQKPGQPPKLLIYKASTLTSGVPLRFSGSGSGTQFTLTISDVQSDDAATYYCLGGGSTPSDSTFGGGTEVVVK	NO
P018.S.06.A.F04 (antibody, V domains shown, V regions on human Ig constant parts; also called AB27_109) VH: QQQLEESGGGLVKPEGSLTLTCKASGFTLSSYLMCWVRQAPGKGLELIGCIGTYSGATYYGSWAKDRFTIAKTSSTTVTLQMTSLTAADTATYFCARDYNFALWGPGTLVTVSS VL: AIVMTQTPSSKSVPVGDTVTINCQASESVYNNNYLSWFQQKPGQPPKLLIYGASTLTSGVPSRFKGSGSGTQFTLTISDVVSDDAATYYCAGYKSSWTDGNAFGGGTEVVVK	YES
